method description: qHTS assay to identify small molecule that activate the aryl hydrocarbon receptor (AhR) signaling pathway - cell viability counter screen (AID 743086); also: nearly all actives have a fitted effect of over 45% in size; also: potency is read from the fitted curve at half-maximal effect
condition info: HepG2-AhR-luc viability, CellTiter-Fluor, 24 h; series mostly up to 70.3 µM
Records with an inconclusive call do not appear. Active and inactive are the calls of the source. Calls follow the shape of the dose curve; as a rule, active = well fitted cell-killing curve with a large enough effect in the repeat runs; inconclusive = weak or mixed curves, or effect the other way; inactive = flat fitted curve, though single readings scatter.
metric name: Potency

Solved cases below.
> print(dat)
                                    compound            result
 1  CC1(C)CC/C(=C/c2ccc(Cl)cc2)C1(O)Cn1cncn1 (configuration not stated)          inactive
 2  CC(C)(C)c1cc([N+](=O)[O-])cc(C(C)(C)C)c1O          inactive
 3  O=C1NCN(c2ccccc2)C12CCN(CC1COc3ccccc3O1)CC2 (configuration not stated)          inactive
 4  CC(C)OC(=O)C(O)(c1ccc(Cl)cc1)c1ccc(Cl)cc1          inactive
 5  CCCN(CCC)c1c([N+](=O)[O-])cc(S(N)(=O)=O)cc1[N+](=O)[O-]  44.4 µM (active)
 6                    O=C/C(Cl)=C(/Cl)C(=O)O          inactive
 7  CC(Cc1ccc(C(C)(C)C)cc1)CN1C[C@@H](C)O[C@@H](C)C1 (some centres not stated)          inactive
 8            CCCCCCCCCC[N+](C)(C)CCCCCCCCCC          inactive
 9                              CC(C)OC(=S)S          inactive
10  O=[N+]([O-])c1ccc(Oc2ccc(C(F)(F)F)cc2[N+](=O)[O-])cc1          inactive

(Q) For CC1CCC(C(C)C)C(OC(=O)c2ccccc2N)C1 (configuration not stated) , what is its reported Potency?
(A) inactive

(Q) Repeat for the following compound: C1CCC2CCCCC2C1 (configuration not stated)
(A) inactive

----------
target of assay: Cytochrome P450 2C19 (Homo sapiens)
method description: Cytochrome P450 Family 2 Subfamily C Member 19 (CYP2C19) small molecule antagonists: luciferase reporter qHTS assay (AID 1671197); also: nearly all actives have a fitted effect of over 65% in size
condition info: P450-Glo CYP2C19 enzyme, luciferin luminescence, 1 h; series mostly up to 115 µM
Inconclusive results are not listed. The source made the active and inactive calls. Calls follow the shape of the dose curve; as a rule, active = well fitted inhibition curve with a large enough effect in the repeat runs; inconclusive = weak or mixed curves; inactive = no such curve, though single readings can be large or run the other way.
Choose one outcome from this list and give only that: YES (active), NO (inactive)

(Q) Which result was noted for this compound in the test: CC(=[OH+])/C=C(/C)[O-].CC(=[OH+])/C=C(\C)[O-].CC(=[OH+])/C=C(\C)[O-].[Fe]
(A) NO

(Q) Try this compound next: CN(C)c1ccc(N=Nc2ccccc2)cc1
(A) YES

(Q) Another compound to check: N#Cc1ccc(O)cc1
(A) YES

(Q) Likewise for CN(CCCC(O)c1cccnc1)N=O (stereo unspecified) ?
(A) NO

(Q) Request: CCCOCC(=Nc1ccc(Cl)cc1C(F)(F)F)n1ccnc1
(A) YES

(Q) Next compound up: CS(=O)(=O)c1ccc(C(=O)C2C(=O)CCCC2=O)c([N+](=O)[O-])c1
(A) YES

(Q) Could you do the same for Cc1cc(SCc2sc(-c3ccc(C(F)(F)F)c(F)c3)nc2C)ccc1OCC(=O)O , please?
(A) NO

(Q) Could you do the same for ClC(Cl)=C(Cl)Cl , please?
(A) NO

(Q) And then COC(=O)N(C(=O)N1CO[C@@]2(C(=O)OC)Cc3cc(Cl)ccc3C2=N1)c1ccc(OC(F)(F)F)cc1 , what is it?
(A) YES

(Q) // next record FC(F)(F)c1cccc(C2=CCN(CCc3ccc4ccccc4c3)CC2)c1
(A) NO

(Q) What do you have for CC(C)Oc1cccc(NC(=O)c2ccccc2C(F)(F)F)c1 ?
(A) YES

(Q) Try CCCN(CC)CC1COC2(CCC(C(C)(C)C)CC2)O1 (stereo unspecified) next.
(A) YES

(Q) Now this one: O=C(CCl)C(Cl)Cl
(A) YES

(Q) Quick one: C=CC(=O)OCC(COC(=O)C=C)(COC(=O)C=C)COC(=O)C=C
(A) YES

(Q) Can you handle Oc1ccccc1Br next?
(A) NO

(Q) Also, CCCCN(CCCC)C(=S)[S-].CCCCN(CCCC)C(=S)[S-].[Zn+2] please.
(A) YES

(Q) Field entry: C=COCCCl
(A) NO

(Q) Please do the same for CC(C)OC(=O)C(O)(c1ccc(Cl)cc1)c1ccc(Cl)cc1 as well.
(A) YES

(Q) Queued: CCCCOP(=O)(CCCC)OCCCC
(A) YES

(Q) Ok, now [Hg+2].[I-].[I-]
(A) YES

(Q) Param item: N#C/C=C/c1ccccc1
(A) NO

(Q) And CC1(c2ccc(Oc3ccccc3)cc2)OC(=O)N(Nc2ccccc2)C1=O (stereo unspecified) ?
(A) YES

(Q) Record: CN(CCCC(=O)c1cccnc1)N=O
(A) NO

(Q) // repeat for O=[N+]([O-])c1ccc2ccc3cccc4ccc1c2c34 and report
(A) NO

(Q) Also Cc1cccc(OP(=O)(Oc2cccc(C)c2)Oc2cccc(C)c2)c1 , if possible.
(A) YES

(Q) Could you do the same for CCOP(=S)(OCC)SCS(=O)(=O)CC , please?
(A) YES
